# measured.on: huLTBP3 proTGFβ1 (Homo sapiens, UniProt P01137+Q9NS15)
# Sequence (P01137 30-390): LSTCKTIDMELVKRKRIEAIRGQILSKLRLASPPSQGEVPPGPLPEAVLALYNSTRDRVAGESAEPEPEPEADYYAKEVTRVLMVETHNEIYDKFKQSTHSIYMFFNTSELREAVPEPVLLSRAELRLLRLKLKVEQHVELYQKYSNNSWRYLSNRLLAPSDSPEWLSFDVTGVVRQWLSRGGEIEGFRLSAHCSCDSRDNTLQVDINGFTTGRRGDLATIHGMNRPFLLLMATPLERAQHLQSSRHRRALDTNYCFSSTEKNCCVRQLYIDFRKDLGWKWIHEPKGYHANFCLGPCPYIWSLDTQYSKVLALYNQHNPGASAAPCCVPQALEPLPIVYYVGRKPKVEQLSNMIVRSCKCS
# Sequence (Q9NS15 44-1303): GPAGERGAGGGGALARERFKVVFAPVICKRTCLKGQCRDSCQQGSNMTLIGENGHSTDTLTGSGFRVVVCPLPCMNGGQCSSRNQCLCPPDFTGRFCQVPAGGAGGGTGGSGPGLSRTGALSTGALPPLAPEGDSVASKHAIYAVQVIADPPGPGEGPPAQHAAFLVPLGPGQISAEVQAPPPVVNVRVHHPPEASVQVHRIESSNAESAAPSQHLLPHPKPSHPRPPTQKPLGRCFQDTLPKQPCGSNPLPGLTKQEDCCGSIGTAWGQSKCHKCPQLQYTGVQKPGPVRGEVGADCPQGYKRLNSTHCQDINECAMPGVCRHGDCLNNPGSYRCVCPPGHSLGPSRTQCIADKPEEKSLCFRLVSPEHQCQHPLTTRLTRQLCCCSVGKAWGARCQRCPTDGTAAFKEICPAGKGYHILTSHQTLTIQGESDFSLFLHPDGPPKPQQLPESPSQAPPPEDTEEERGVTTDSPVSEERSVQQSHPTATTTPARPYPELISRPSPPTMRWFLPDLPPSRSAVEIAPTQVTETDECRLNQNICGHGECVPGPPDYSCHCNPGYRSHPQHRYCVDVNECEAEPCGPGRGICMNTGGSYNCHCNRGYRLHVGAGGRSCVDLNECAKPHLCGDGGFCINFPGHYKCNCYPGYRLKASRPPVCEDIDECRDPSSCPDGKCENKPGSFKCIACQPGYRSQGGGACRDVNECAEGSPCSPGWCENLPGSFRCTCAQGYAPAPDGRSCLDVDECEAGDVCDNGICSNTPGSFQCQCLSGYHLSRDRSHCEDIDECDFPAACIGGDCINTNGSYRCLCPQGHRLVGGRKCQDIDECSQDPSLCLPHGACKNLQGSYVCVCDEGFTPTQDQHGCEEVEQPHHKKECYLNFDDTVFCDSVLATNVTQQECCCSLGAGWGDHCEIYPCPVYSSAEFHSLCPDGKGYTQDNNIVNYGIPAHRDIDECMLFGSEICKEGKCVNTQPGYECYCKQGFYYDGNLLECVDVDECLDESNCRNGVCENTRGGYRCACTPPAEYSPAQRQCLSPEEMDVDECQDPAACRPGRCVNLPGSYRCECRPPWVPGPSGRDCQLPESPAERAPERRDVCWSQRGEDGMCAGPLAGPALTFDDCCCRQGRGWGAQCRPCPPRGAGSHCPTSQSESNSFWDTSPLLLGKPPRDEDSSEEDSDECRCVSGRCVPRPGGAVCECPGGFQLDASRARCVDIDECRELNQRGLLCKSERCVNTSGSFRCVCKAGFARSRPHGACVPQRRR
# protocol.description: Octet (BLI) binding, IgG captured on AHC tips, antigen at 100 nM
# experimental.setup: Table 9; cycle 3; IgG1-agly; 5-minute dissociation
Task for the reader: assign each of the following molecules its reported Hu LTBP3-proTGFβ1 Koff.
Respond with the bare value in s⁻¹.

-- ask Which Hu LTBP3-proTGFβ1 Koff reading was recorded for the molecule SR-AB40: cycle 3 light chain-optimized antibody, lineage SR-AB23; CDRs SEQ ID NO: 154-159 (antibody, V domains shown) VH: QVQLVESGGGVVQPGRSLRLSCAASGFTFRSYVMHWVRQAPGKGLEWVAVISHEGSLKYYADSVKGRFTISRDNSKNTLYLQMNSLRAEDTAVYYCARPRIAARRGGFGYWGQGTLVTVSS VL: NFMLTQPHSVSESPGKTVTISCTRSSGNIDNNYVQWYQQRPGSSPTTVIYEDNQRPSGVPDRFSGSIDSSSNSASLTISGLKTEDEADYYCQSYDYSNQGVVFGGGTKLTVL ?
-- reply 6.07e-05

-- ask Which Hu LTBP3-proTGFβ1 Koff reading was recorded for the molecule SR-AB45: cycle 3 light chain-optimized antibody, lineage SR-AB23; CDRs SEQ ID NO: 184-189 (antibody, V domains shown) VH: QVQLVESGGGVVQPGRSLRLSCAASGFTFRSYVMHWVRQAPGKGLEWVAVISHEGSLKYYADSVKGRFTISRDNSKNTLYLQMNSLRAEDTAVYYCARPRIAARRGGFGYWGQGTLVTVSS VL: NFMLTQPHSVSESPGKTVTISCTRSSGAIDDNYVQWYQQRPGSSPTTVIYEDFQRPSGVPDRFSGSIDSSSNSASLTISGLKTEDEADYYCQSYDDDLQGVVFGGGTKLTVL ?
-- reply 6e-05

-- ask Which Hu LTBP3-proTGFβ1 Koff reading was recorded for the molecule SR-AB44: cycle 3 light chain-optimized antibody, lineage SR-AB23; CDRs SEQ ID NO: 178-183 (antibody, V domains shown) VH: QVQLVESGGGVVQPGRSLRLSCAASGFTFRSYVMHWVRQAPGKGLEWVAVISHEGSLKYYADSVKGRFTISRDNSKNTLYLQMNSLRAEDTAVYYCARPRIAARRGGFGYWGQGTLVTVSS VL: NFMLTQPHSVSESPGKTVTISCTRSHGNIDDNYVQWYQQRPGSSPTTVIYEDNVRPSGVPDRFSGSIDSSSNSASLTISGLKTEDEADYYCQSYDSDNQLVVFGGGTKLTVL ?
-- reply 6e-05

-- ask Which Hu LTBP3-proTGFβ1 Koff reading was recorded for the molecule SR-AB43: cycle 3 light chain-optimized antibody, lineage SR-AB23; CDRs SEQ ID NO: 172-177 (antibody, V domains shown) VH: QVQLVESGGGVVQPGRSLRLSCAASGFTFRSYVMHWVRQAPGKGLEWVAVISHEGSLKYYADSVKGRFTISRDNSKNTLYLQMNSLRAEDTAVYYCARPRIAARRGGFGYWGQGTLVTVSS VL: NFMLTQPHSVSESPGKTVTISCTRSSGNIDYNYVQWYQQRPGSSPTTVIYEDNVRPSGVPDRFSGSIDSSSNSASLTISGLKTEDEADYYCQSYDSDNQRVVFGGGTKLTVL ?
-- reply 6e-05
